system: OVCAR-8 ovarian; assay: NCI-60 one-dose screen, 48 h (100 = growth as untreated, 0 = no growth, -100 = all killed); conditions: 10 µM unless noted
Compounds without any hit were thinned out: in the full panel of roughly 83,000, 20% have a hit. Calls of active or inactive are those of the source. The calls were made as follows: active = growth percent below 10; inactive = the rest.
reported endpoint: growth

Lookup: Consider the molecule shown here: Nc1nc(N)c2c(n1)NC(c1cccc(Nc3ccnc4cc(C(F)(F)F)ccc34)c1)CC(c1ccc3c(c1)OCO3)=N2 (stereo not given) What is its recorded growth?
Found: 73.4% (inactive)

Lookup: Consider the molecule shown here: `C=C(c1ccc(C(=O)O)c(F)c1)c1cc2c(cc1C)C(C)(C)CCC2(C)C` What is its recorded growth?
Found: 90.8% (inactive)

Lookup: Consider the molecule shown here: `Cc1cc(O)cc(-c2nn(C)cc2-c2cc(N3CCOCC3)nc(-c3cccnc3)n2)c1` What is its recorded growth?
Found: 47.1% (inactive)

Lookup: Consider the molecule shown here: `C=C1SC(=Nc2ccccc2Cl)N(C(=O)c2sc3ccccc3c2Cl)C1(C)C` What is its recorded growth?
Found: 61.4% (inactive)

Lookup: Consider the molecule shown here: `CCCCCCCCn1ccc2cc(NC(=O)CN=[N+]=[N-])ccc21` What is its recorded growth?
Found: 96.9% (inactive)

Lookup: Consider the molecule shown here: CCOC(=O)c1cnn(CC(C)O)c1NC(=O)NCc1ccccc1C(F)(F)F (stereo not given) What is its recorded growth?
Found: 97.6% (inactive)

Lookup: Consider the molecule shown here: COc1ccc(CN2C(=O)OC(C)(COC(C)=O)C2=O)cc1 (stereo not given) What is its recorded growth?
Found: 104% (inactive)

Lookup: Consider the molecule shown here: `O=S(O)c1cc(Cl)cc(Cl)c1OCc1ccccc1` What is its recorded growth?
Found: 97.6% (inactive)

Lookup: Consider the molecule shown here: `COc1ccc(C/C(C)=C(\c2ccc(Cl)cc2)c2ccc(OCCCN(C)C)cc2)cc1` What is its recorded growth?
Found: 86.2% (inactive)

Lookup: Consider the molecule shown here: `CCOC(=O)c1[nH]cc2c1CCc1sc(Nc3ccccn3)nc1-2` What is its recorded growth?
Found: 83.1% (inactive)

Lookup: Consider the molecule shown here: `Clc1ccc(Nc2ncc(Cc3cccc(Cl)c3Cl)s2)cc1` What is its recorded growth?
Found: 98% (inactive)

Lookup: Consider the molecule shown here: `COC(=O)c1ccc2cc(OC)c(OC)cc2c1` What is its recorded growth?
Found: 104% (inactive)

Lookup: Consider the molecule shown here: `C/C(Cc1ccc(Cl)cc1)=C(\c1ccc(OCCN2CCCCCC2)cc1)c1ccc(OC(=O)c2ccccc2)cc1` What is its recorded growth?
Found: 34.5% (inactive)

Lookup: Consider the molecule shown here: `O=C(Nc1cccnc1Nc1ccccc1)c1cn(Cc2cccc(Oc3ccccc3)c2)nn1` What is its recorded growth?
Found: 71.4% (inactive)

Lookup: Consider the molecule shown here: `CSc1ccc2c3c(n(CCCn4ccnc4)c(=O)c2c1)-c1ccccc1C3=O` What is its recorded growth?
Found: 40.2% (inactive)

* * *

test system: CCRF-CEM leukemia; experiment: NCI-60 one-dose screen, 48 h; conditions: 10 µM unless noted
Compounds without any hit were thinned out: in the full panel of roughly 83,000, 20% have a hit. Activity calls are given as the source filed them. The calls were made as follows: active = growth percent below 10; inactive = the rest.
Hello, when you answer, please use one of the following outcomes: active, inactive

Lookup: Please share the test call associated with CCN1C(=O)N(CC)C2C1NN=c1s/c(=C\c3ccc(OC)cc3)c(=O)n12 (stereo not drawn) .
Found: active

Lookup: Please share the test call associated with `c1ccc(Cn2cc3c(c2-c2ccccc2)CCc2cnoc2-3)cc1` .
Found: inactive

Lookup: Please share the test call associated with `CCOC(=O)c1c(C)nc2c(c1N)C(=O)C(=O)N2Cc1ccc(OC)cc1` .
Found: inactive

Lookup: Please share the test call associated with Cc1cc(C)c2c(c1)N(C)c1ncnc(-n3c(C)nc4cc(C)ccc43)c1CC2C (stereo not drawn) .
Found: inactive

Lookup: Please share the test call associated with O=C(NC1CCC(Br)CC1)C1CCCC(S(=O)(=O)NC2CCCCC2)C1 (stereo not drawn) .
Found: inactive

Lookup: Please share the test call associated with `COC(=O)[C@]1(C)CCC[C@]2(C)[C@H]3C[C@@H]4[C@H]5[C@@H]6CC/C(=N\OCC/C(N)=N/O)[C@H]5[C@@]3(CC[C@H]21)CC4(C(C)C)O6` .
Found: inactive

Lookup: Please share the test call associated with `Nc1c(C(=O)Nc2cccc3ncccc23)sc2nc3c(cc12)CN(Cc1ccccc1)CC3` .
Found: inactive

Lookup: Please share the test call associated with COc1ccc(-c2cc(C(=O)N3N=C(c4ccc(N)cc4)CC3c3ccc(Cl)cc3)c3cc(OC)ccc3n2)cc1 (stereo not drawn) .
Found: inactive

* * *

tested on: NCI/ADR-RES ovarian; test: NCI-60 one-dose screen, 48 h; settings: 10 µM unless noted
Compounds without any hit were thinned out: in the full panel of roughly 83,000, 20% have a hit. Calls of active or inactive are those of the source. How the source made its calls: active means growth percent below 10; inactive means the rest.
Hello, when you answer, please use one of the following outcomes: 1.0 = active, 0.0 = inactive

Lookup: Please share the test call associated with `N#CSc1c[nH]c2ccc(/C=C/C(=O)/C=C(O)/C=C/c3ccc4[nH]cc(SC#N)c4c3)cc12` .
Found: 0.0

Lookup: Please share the test call associated with `C#COc1cccc(Nc2ncnc3cc(NC(=O)[C@H](C)Cl)ccc23)c1` .
Found: 0.0

Lookup: Please share the test call associated with `O=C(Nc1nc(Cl)nc(Nc2ccc(N3CCOCC3=O)cc2)n1)c1ccc(Cl)s1` .
Found: 0.0

Lookup: Please share the test call associated with `C=C[C@@]1(C)CC(=O)[C@@H](C(C)(C)c2cn(C)c3ccc(Br)cc23)C[C@@H]1O[Si](C)(C)C(C)(C)C` .
Found: 0.0

Lookup: Please share the test call associated with `CC(C)CCC[C@@H](C)[C@H]1CC[C@H]2[C@@H]3CC=C4c5sc(Nc6cc(C(F)(F)F)cc(C(F)(F)F)c6)nc5CC[C@]4(C)[C@H]3CC[C@]12C` .
Found: 0.0

Lookup: Please share the test call associated with `COC(=O)c1sccc1-c1cc(O)c(C(=O)Nc2ccccc2)s1` .
Found: 0.0

Lookup: Please share the test call associated with `CCN(CC)CCOc1ccc(C(=O)/C=C\c2ccc(Cl)cc2Cl)cc1` .
Found: 0.0

Lookup: Please share the test call associated with `ClC(Cl)c1nc(-c2ccccc2)n2nc(-c3ccccc3)cc2n1` .
Found: 1.0

Lookup: Please share the test call associated with `CC(C)(C)CC(C)(C)Nc1c(-c2c(O)c3ccccc3oc2=O)nc2sc3ccccc3n12` .
Found: 0.0

Lookup: Please share the test call associated with `Nc1nc(C(=O)N/N=C/c2ccc(F)cc2)nn1-c1ccc(S(N)(=O)=O)cc1` .
Found: 0.0

Lookup: Please share the test call associated with `Cc1c2cnccc2c(C)c2c1c1cc(CO)ccc1n2C` .
Found: 1.0

Lookup: Please share the test call associated with `CC(=O)c1ccc(-n2cc(CN3CCN(c4cc5c(cc4F)c(=O)c(C(=O)O)cn5C4CC4)CC3)nn2)cc1` .
Found: 0.0

Lookup: Please share the test call associated with `COc1ccc(C(=O)/C=C/c2ccccc2)cc1S(N)(=O)=O` .
Found: 0.0

* * *

test system: MDA-MB-435 melanoma; assay: NCI-60 one-dose screen, 48 h; conditions: 10 µM unless noted
The panel holds about 83,000 compounds, 20% with a hit somewhere; the sample as a whole holds those more often. Activity calls are given as the source filed them. The calls were made as follows: active = growth percent below 10; inactive = the rest.
Hello, when you answer, please use one of the following outcomes: active, inactive

Lookup: Please share the test call associated with `CCN(CC)CCOc1ccc(Nc2ncc3cc(-c4c(Cl)cccc4Cl)c(=O)n(CCOC)c3n2)cc1` .
Found: active

Lookup: Please share the test call associated with `COc1ccc(/C=C2\c3cc(OC)c(OC)c(OC)c3CC[C@@H]2O)cc1F` .
Found: active

Lookup: Please share the test call associated with `COc1ccc(C(=O)Nc2ncc(Cc3ccc(Cl)cc3)s2)cc1` .
Found: active

Lookup: Please share the test call associated with `COC(=O)c1sccc1-c1cc(O)c(C(=O)Nc2ccccc2)s1` .
Found: inactive

Lookup: Please share the test call associated with `c1cc(OCCCCCOc2cccc(-c3nc4ccccc4[nH]3)c2)cc(-c2nc3ccccc3[nH]2)c1` .
Found: active

Lookup: Please share the test call associated with CCOC(=O)c1cnn(CC(C)O)c1NC(=O)NCc1cccc(F)c1 (stereo unspecified) .
Found: inactive

Lookup: Please share the test call associated with CCCCO[C@@H]1C=C2[C@H]3CC(C)(C)C(=O)C[C@]3(C(=O)O[C@@H]3O[C@H](CO[C@@H]4O[C@H](CO)[C@@H](OC5OC(C)C(O)C(O)C5O)[C@H](O)[C@H]4O)[C@@H](O)[C@H](O)[C@H]3O)CC[C@@]2(C)[C@]2(C)CC[C@H]3C(C)(C)C(=O)CC[C@]3(C)[C@@H]12 (stereo partly specified) .
Found: inactive

Lookup: Please share the test call associated with `O=C(OCc1ccc2c(Cl)cc(Cl)c(O)c2n1)N1CCN(C(=O)c2cc3ccccc3[nH]2)CC1` .
Found: inactive

Lookup: Please share the test call associated with CCCCC#Cc1c(I)n(C2OC(CO[Si](C)(C)C(C)(C)C)C3OC(C)(C)OC32)c(=O)n(C(=O)c2ccccc2)c1=O (stereo unspecified) .
Found: inactive

Lookup: Please share the test call associated with `CSc1nc(-c2ccco2)c(C#N)c(=O)n1C` .
Found: inactive

Lookup: Please share the test call associated with `Clc1ccc2nn3c4ccccc4c(OCCN4CCOCC4)nc3c2c1` .
Found: inactive

Lookup: Please share the test call associated with `CCCc1cc(=O)oc2c(C(=O)CC(C)C)c(O)c(CC=C(C)C)c(O)c12` .
Found: inactive

Lookup: Please share the test call associated with `Cn1c2ccccc2c2c3c(c4c5cc(Br)ccc5n(C)c4c21)C(=O)N(O)C3=O` .
Found: inactive

Lookup: Please share the test call associated with `c1ccc(Nc2nc3c(s2)CCc2c[nH]cc2-3)nc1` .
Found: inactive

Lookup: Please share the test call associated with `O=C(C1=Cc2cc3ccccc3n2Cc2cnnn21)c1ccc(F)cc1` .
Found: inactive

Lookup: Please share the test call associated with `ClC(Cl)c1nc(-c2ccccc2)n2nc(-c3ccccc3)cc2n1` .
Found: inactive

Lookup: Please share the test call associated with O=C(NCCNC(c1ccccc1)C(NCCNC(=O)c1ccccc1)c1ccccc1)c1ccccc1 (stereo unspecified) .
Found: inactive

Lookup: Please share the test call associated with O=C(CN1C(=O)S/C(=C\C(Cl)=C\c2ccccc2)C1=O)NC1CCS(=O)(=O)C1 (stereo unspecified) .
Found: inactive

Lookup: Please share the test call associated with COc1cc2c(c(OC)c1OC)C(=O)CC(c1cccc(C(=O)Nc3ccc(C#N)cc3)c1)O2 (stereo unspecified) .
Found: inactive

Lookup: Please share the test call associated with `O=C(C[C@]1(O)C(=O)Nc2ccc(Br)cc21)c1ccco1` .
Found: inactive

Lookup: Please share the test call associated with Clc1cccc(C2Cc3cnccc3-c3[nH]c4ccncc4c32)c1 (stereo unspecified) .
Found: inactive

Lookup: Please share the test call associated with `C=CCN=c1sc(-c2ccc3ccccc3c2)cn1NC(=O)c1cc2ccc1CCc1ccc(cc1)CC2` .
Found: inactive

Lookup: Please share the test call associated with `Cc1c2cnccc2c(C)c2c1c1cc(CO)ccc1n2C` .
Found: active

Lookup: Please share the test call associated with `CCN(CC)CCOc1ccc(/C(=C(\C)Cc2ccc(OC)cc2)c2ccc(OC(=O)NCc3ccccc3)cc2)cc1` .
Found: inactive

Lookup: Please share the test call associated with `C/C=C1/CN(CCCCC)CC[C@H]1C(=O)c1cc2ccccc2[nH]1` .
Found: inactive

Lookup: Please share the test call associated with `COC(=O)[C@]1(C)CCC[C@]2(C)[C@H]3C[C@@H]4[C@H]5[C@@H]6CC/C(=N\OCC/C(N)=N/O)[C@H]5[C@@]3(CC[C@H]21)CC4(C(C)C)O6` .
Found: inactive

Lookup: Please share the test call associated with `CCN(CC)CCOc1ccc2ccc(=O)oc2c1` .
Found: inactive

Lookup: Please share the test call associated with CS(=O)/C(C#N)=C\C=C\c1cccc(Cl)c1 (stereo unspecified) .
Found: active

Lookup: Please share the test call associated with CN1CC(c2ccc(Br)cc2)C(C(=O)c2ccc(Br)cc2)C12C(=O)Nc1ccccc12 (stereo unspecified) .
Found: inactive

Lookup: Please share the test call associated with `COc1cc(/C=C/c2cc(/C=C/c3ccc(O)c(OC)c3)n(C(=O)Nc3ccc(Cl)cc3)n2)ccc1O` .
Found: active

Lookup: Please share the test call associated with `Cc1cccc(-c2nc(C(C)C)sc2-c2ccnc(NCCCNS(=O)(=O)c3ccc(Cl)cc3)c2)c1` .
Found: inactive
